Measured pIC50, listed per entry.
# tested target: calcium channel (3H-nitrendipine binding, rabbit heart membranes) (Oryctolagus cuniculus, UniProt P15381)
# Sequence (P15381 whole entry, other chains not shown): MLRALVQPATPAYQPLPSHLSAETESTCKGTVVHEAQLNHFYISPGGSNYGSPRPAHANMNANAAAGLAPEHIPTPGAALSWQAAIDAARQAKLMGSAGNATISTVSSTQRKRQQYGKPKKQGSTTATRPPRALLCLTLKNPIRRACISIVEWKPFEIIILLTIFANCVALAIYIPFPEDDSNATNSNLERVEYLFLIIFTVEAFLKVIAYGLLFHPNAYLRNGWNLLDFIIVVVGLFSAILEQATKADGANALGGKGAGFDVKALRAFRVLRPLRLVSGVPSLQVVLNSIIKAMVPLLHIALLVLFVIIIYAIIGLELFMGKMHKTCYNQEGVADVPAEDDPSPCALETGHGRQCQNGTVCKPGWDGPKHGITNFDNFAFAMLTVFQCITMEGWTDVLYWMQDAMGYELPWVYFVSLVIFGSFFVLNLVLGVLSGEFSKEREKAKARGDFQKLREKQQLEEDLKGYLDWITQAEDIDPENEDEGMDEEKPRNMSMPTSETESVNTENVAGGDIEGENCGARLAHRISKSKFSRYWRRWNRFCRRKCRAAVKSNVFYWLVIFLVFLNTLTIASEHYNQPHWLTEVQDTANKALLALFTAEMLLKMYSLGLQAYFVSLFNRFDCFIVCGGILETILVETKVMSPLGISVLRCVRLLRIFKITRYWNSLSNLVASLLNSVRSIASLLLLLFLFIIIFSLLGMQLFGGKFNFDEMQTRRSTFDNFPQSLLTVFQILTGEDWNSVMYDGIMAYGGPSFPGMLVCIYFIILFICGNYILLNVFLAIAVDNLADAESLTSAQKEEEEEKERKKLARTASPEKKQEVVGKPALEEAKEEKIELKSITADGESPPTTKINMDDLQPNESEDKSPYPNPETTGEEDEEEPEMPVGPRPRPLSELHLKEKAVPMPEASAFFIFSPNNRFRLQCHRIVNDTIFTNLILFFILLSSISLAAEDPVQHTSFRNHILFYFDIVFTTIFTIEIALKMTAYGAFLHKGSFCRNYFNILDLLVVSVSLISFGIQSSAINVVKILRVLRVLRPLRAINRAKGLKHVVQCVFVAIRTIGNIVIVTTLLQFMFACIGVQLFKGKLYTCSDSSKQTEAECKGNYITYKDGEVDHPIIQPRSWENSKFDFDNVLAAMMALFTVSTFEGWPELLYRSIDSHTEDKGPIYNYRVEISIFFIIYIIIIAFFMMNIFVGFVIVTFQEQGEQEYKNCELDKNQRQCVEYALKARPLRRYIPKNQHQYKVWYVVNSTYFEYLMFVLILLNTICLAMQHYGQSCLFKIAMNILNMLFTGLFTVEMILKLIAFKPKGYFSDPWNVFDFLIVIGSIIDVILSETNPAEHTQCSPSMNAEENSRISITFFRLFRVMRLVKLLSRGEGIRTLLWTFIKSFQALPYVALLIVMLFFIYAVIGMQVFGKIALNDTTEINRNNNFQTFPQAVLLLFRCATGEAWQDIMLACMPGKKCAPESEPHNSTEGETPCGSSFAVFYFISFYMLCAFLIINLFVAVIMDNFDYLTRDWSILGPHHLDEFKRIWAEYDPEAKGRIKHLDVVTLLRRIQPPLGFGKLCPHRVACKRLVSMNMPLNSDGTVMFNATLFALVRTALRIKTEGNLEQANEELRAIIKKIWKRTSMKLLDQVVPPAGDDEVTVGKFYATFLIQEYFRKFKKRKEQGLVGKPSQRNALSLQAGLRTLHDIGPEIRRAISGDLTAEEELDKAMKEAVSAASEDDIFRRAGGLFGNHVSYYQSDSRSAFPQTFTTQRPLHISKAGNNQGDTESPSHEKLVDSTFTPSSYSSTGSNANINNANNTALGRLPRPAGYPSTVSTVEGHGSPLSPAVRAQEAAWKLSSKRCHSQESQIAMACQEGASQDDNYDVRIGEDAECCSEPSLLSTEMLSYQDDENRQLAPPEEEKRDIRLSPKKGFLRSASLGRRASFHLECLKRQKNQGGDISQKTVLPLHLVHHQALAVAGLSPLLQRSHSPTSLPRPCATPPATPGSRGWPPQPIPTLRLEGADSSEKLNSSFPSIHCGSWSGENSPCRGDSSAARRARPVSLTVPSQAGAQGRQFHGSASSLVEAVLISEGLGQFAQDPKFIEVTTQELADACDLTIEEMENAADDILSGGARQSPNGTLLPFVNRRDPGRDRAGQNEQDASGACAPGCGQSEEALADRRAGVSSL
# Sequence (P13806 27-960 partner limits assumed, other chains not shown): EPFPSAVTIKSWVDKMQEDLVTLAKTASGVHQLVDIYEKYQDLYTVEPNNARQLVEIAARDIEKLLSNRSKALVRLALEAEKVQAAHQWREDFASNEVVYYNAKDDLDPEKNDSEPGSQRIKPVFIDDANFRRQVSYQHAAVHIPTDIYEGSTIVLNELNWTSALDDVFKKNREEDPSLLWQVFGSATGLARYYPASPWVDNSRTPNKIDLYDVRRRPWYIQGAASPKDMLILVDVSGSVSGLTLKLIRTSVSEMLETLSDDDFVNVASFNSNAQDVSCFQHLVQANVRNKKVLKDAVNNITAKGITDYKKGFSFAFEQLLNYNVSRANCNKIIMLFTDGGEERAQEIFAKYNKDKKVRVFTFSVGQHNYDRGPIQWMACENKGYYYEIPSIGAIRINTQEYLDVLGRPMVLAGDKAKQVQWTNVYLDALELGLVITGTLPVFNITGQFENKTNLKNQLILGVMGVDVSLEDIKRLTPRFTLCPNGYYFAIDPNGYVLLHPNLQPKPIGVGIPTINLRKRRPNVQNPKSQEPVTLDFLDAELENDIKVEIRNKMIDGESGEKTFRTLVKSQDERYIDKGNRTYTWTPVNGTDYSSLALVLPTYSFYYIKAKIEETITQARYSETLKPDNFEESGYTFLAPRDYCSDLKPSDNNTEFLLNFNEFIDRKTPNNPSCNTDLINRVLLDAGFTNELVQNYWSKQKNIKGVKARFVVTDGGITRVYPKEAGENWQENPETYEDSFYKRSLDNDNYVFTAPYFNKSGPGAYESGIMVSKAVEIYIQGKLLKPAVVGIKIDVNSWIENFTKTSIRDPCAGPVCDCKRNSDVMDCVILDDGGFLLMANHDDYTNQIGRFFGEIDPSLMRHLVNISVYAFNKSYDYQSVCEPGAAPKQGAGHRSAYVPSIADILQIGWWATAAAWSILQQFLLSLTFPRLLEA
# Sequence (P13806 961-1106 partner limits assumed, other chains not shown): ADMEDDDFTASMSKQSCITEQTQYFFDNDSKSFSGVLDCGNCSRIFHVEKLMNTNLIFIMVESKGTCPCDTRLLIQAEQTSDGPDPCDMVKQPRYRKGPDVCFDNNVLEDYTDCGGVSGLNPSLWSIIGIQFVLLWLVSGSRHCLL
# procedure details: Assay for Inhibition of Nitrendipine Binding
# condition info: 3H-nitrendipine (0.05-0.50 nM), 90 minutes at 4° C.
In plain terms, pIC50 is the concentration in mol/L turned into minus its base-10 logarithm.

CC1=C(C(=O)OCCN(C)Cc2cccs2)C(c2ccccc2Cl)C2=C(N1)c1ccccc1CCS2(=O)=O (centres unmarked)    7.00
COC(=O)C1=C(C)NC2=C(C1c1cccc(Cl)c1Cl)S(=O)(=O)CCc1ccccc12 (centres unmarked)    7.42
COC(=O)C1=C(C)NC2=C(C1c1c(O)cccc1Cl)S(=O)(=O)CCc1ccccc12 (centres unmarked)    5.89
COC(=O)C1=C(C)NC2=C(C1c1c(F)c(F)c(F)c(F)c1F)S(=O)(=O)CCc1ccccc12 (centres unmarked)    6.58
CC1=C(C(=O)OCCN(C)Cc2ccccc2)C(c2ccccc2Cl)C2=C(N1)c1ccccc1CCS2(=O)=O (centres unmarked)    6.34
CC1=C(C(=O)OCCN(C)Cc2cccs2)C(c2cccc(Cl)c2Cl)C2=C(N1)c1ccccc1CCS2(=O)=O (centres unmarked)    7.42
CC1=C(C(=O)OCCN(C)Cc2ccccc2)C(c2cccc(Cl)c2Cl)C2=C(N1)c1ccccc1CCS2(=O)=O (centres unmarked)    6.93
COC(=O)C1=C(C)NC2=C(C1c1ccccc1Cl)S(=O)(=O)CCc1ccccc12 (centres unmarked)    6.21
COC(=O)C1=C(C)NC2=C(C1c1ccccc1[N+](=O)[O-])S(=O)(=O)CCc1ccccc12 (centres unmarked)    5.72
COC(=O)C1=C(C)NC2=C(C1c1cccc(Cl)c1)S(=O)(=O)CCc1ccccc12 (centres unmarked)    6.47

Below: the item to evaluate.
Need pIC50 of COC(=O)C1=C(C)NC2=C(C1c1cccc([N+](=O)[O-])c1)S(=O)(=O)CCc1ccccc12 (centres unmarked) , thanks.
6.58
